Reference source: ChEMBL document CHEMBL4346654

- Test system: Moraxella catarrhalis
- Test name: Antibacterial activity against erythromycin-susceptible Moraxella catarrhalis 13L332 assessed as reduction in microbial growth by CLSI based two-fold broth dilution method
- Format: functional
Recorded metric: MIC
Respond with the figure and its unit, in that order.

# Compound, Target or test system, Assay result
rows = [
    ("CC[C@H]1OC(=O)[C@@](C)(F)C(=O)[C@H](C)[C@@H](O[C@@H]2O[C@H](C)C[C@H](N(C)C)[C@H]2O)[C@](C)(OC/C=C/c2ccc3c(c2)c(=O)c(C(N)=O)cn3C2CC2)C[C@@H](C)/C(=N\\OC)[C@H](C)[C@H]2OC(=O)O[C@@]21C", "Moraxella catarrhalis", "0.5 µg/mL"),
    ("CC[C@H]1OC(=O)[C@@](C)(F)C(=O)[C@H](C)[C@@H](O[C@@H]2O[C@H](C)C[C@H](N(C)C)[C@H]2O)[C@](C)(OC)C[C@@H](C)/C(=N\\OCC#Cc2ccc3c(c2)c(=O)c(C(N)=O)cn3CC)[C@H](C)[C@H]2OC(=O)O[C@@]21C", "Moraxella catarrhalis", "4 µg/mL"),
    ("CC[C@H]1OC(=O)[C@@](C)(F)C(=O)[C@H](C)[C@@H](O[C@@H]2O[C@H](C)C[C@H](N(C)C)[C@H]2O)[C@](C)(OC/C=C/c2ccc3c(c2)c(=O)c(C(=O)NC)cn3C2CC2)C[C@@H](C)/C(=N\\OC)[C@H](C)[C@H]2OC(=O)O[C@@]21C", "Moraxella catarrhalis", "1 µg/mL"),
]

Moving on to another molecule below.
Record `CC[C@H]1OC(=O)[C@@](C)(F)C(=O)[C@H](C)[C@@H](O[C@@H]2O[C@H](C)C[C@H](N(C)C)[C@H]2O)[C@](C)(OC)C[C@@H](C)/C(=N\OCC#Cc2ccc3c(c2)c(=O)c(C(=O)NC)cn3C2CC2)[C@H](C)[C@H]2OC(=O)O[C@@]21C` : what is its MIC with Moraxella catarrhalis?
4 µg/mL

---

- Tested on: Streptococcus pyogenes
- Test name: Antibacterial activity against MLS-resistant Streptococcus pyogenes 01-968 expressing inducible ermB gene assessed as reduction in microbial growth by CLSI based two-fold broth dilution method
- Assay type: functional
Recorded metric: MIC (µg/mL)
Number only, in µg/mL; omit the unit.

Record `CC[C@H]1OC(=O)[C@@](C)(F)C(=O)[C@H](C)[C@@H](O[C@@H]2O[C@H](C)C[C@H](N(C)C)[C@H]2O)[C@](C)(OC)C[C@@H](C)/C(=N\OC/C=C/c2cnc3ccccc3c2N)[C@H](C)[C@H]2OC(=O)O[C@@]21C` : what is its MIC with Streptococcus pyogenes?
0.016

---

Measured MBC by item
- Tested on: Staphylococcus aureus
- Test name: Bactericidal activity against MLS/methicillin-resistant Staphylococcus aureus PU 32 expressing inducible ermA gene pretreated followed by subculture in absence of compound measured after 24 hrs
- Assay type: functional
Number only, in µg/mL; omit the unit.

# Compound, Assay result
records = [
    ("CC[C@H]1OC(=O)[C@@](C)(F)C(=O)[C@H](C)[C@@H](O[C@@H]2O[C@H](C)C[C@H](N(C)C)[C@H]2O)[C@](C)(OC)C[C@@H](C)/C(=N\\OC/C=C/c2cnc3ccccc3c2N)[C@H](C)[C@H]2OC(=O)O[C@@]21C", 8),
]

Return reported MBC; argument: `CC[C@H]1OC(=O)[C@@](C)(F)C(=O)[C@H](C)[C@@H](O[C@@H]2O[C@H](C)C[C@H](N(C)C)[C@H]2O)[C@](C)(OC)C[C@@H](C)/C(=N\OCC#Cc2ccc([N+](=O)[O-])nc2)[C@H](C)[C@H]2OC(=O)O[C@@]21C`
2

---

Measured MBC by item
- Test system: Staphylococcus aureus
- Test name: Bactericidal activity against MLS/methicillin-resistant Staphylococcus aureus PU 32 expressing inducible ermA gene pretreated followed by subculture in absence of compound measured after 24 hrs
- Type: functional
Number only, in µg/mL; omit the unit.

# Compound, MBC [µg/mL]
measured = [
    ("CC[C@H]1OC(=O)[C@@](C)(F)C(=O)[C@H](C)[C@@H](O[C@@H]2O[C@H](C)C[C@H](N(C)C)[C@H]2O)[C@](C)(OC)C[C@@H](C)/C(=N\\OCC#Cc2ccc3c(c2)c(=O)c(C(N)=O)cn3C2CC2)[C@H](C)[C@H]2OC(=O)O[C@@]21C", 8),
    ("CC[C@H]1OC(=O)[C@@](C)(F)C(=O)[C@H](C)[C@@H](O[C@@H]2O[C@H](C)C[C@H](N(C)C)[C@H]2O)[C@](C)(OC)C[C@@H](C)/C(=N\\OCC#Cc2ccc3c(c2)c(=O)c(C(N)=O)cn3CC)[C@H](C)[C@H]2OC(=O)O[C@@]21C", 8),
]

Moving on to another compound below.
Return reported MBC; argument: `CC[C@H]1OC(=O)[C@@](C)(F)C(=O)[C@H](C)[C@@H](O[C@@H]2O[C@H](C)C[C@H](N(C)C)[C@H]2O)[C@](C)(OC/C=C/c2ccc3[nH]ccc(=O)c3c2)C[C@@H](C)/C(=N\OC)[C@H](C)[C@H]2OC(=O)O[C@@]21C`
8

---

- Test system: Streptococcus pyogenes
- Test name: Bactericidal activity against MLS-resistant Streptococcus pyogenes 12-206 expressing constitutive ermA gene pretreated followed by subculture in absence of compound measured after 24 hrs
- Type: functional
Measured MBC by item

Look over these answered cases.
# Compound, MBC
records = [
    ("CC[C@H]1OC(=O)[C@@](C)(F)C(=O)[C@H](C)[C@@H](O[C@@H]2O[C@H](C)C[C@H](N(C)C)[C@H]2O)[C@](C)(OC)C[C@@H](C)/C(=N\\OC/C=C/c2ccc3c(c2)c(=O)c(C(=O)NC)cn3CC)[C@H](C)[C@H]2OC(=O)O[C@@]21C", "> 8 µg/mL"),
    ("CC[C@H]1OC(=O)[C@@](C)(F)C(=O)[C@H](C)[C@@H](O[C@@H]2O[C@H](C)C[C@H](N(C)C)[C@H]2O)[C@](C)(OC/C=C/c2ccc3c(c2)c(=O)c(C(=O)NC)cn3CC)C[C@@H](C)/C(=N\\OC)[C@H](C)[C@H]2OC(=O)O[C@@]21C", "> 0.016 µg/mL"),
    ("O=C(O)c1cn(C2CC2)c2cc(N3CCNCC3)c(F)cc2c1=O", "> 1 µg/mL"),
]

Record `CC[C@H]1OC(=O)[C@H](C)C(=O)[C@H](C)[C@@H](O[C@@H]2O[C@H](C)C[C@H](N(C)C)[C@H]2O)[C@](C)(OC)C[C@@H](C)C(=O)[C@H](C)[C@H]2N(CCCCn3cnc(-c4cccnc4)c3)C(=O)O[C@]12C` : what is its MBC with Streptococcus pyogenes?
> 0.25 µg/mL

---

- Test system: Streptococcus pyogenes
- Test name: Antibacterial activity against MLS-resistant Streptococcus pyogenes 01-968 expressing inducible ermB gene assessed as reduction in microbial growth by CLSI based two-fold broth dilution method
- Format: functional
Recorded metric: MIC (µg/mL)
Number only, in µg/mL; omit the unit.

Look over these answered cases.
# Compound, MIC [µg/mL]
measured = [
    ("CC[C@H]1OC(=O)[C@@](C)(F)C(=O)[C@H](C)[C@@H](O[C@@H]2O[C@H](C)C[C@H](N(C)C)[C@H]2O)[C@](C)(OC)C[C@@H](C)/C(=N\\OCC#Cc2cncc(C(=O)NC)c2)[C@H](C)[C@H]2OC(=O)O[C@@]21C", 0.062),
    ("CC[C@H]1OC(=O)[C@@](C)(F)C(=O)[C@H](C)[C@@H](O[C@@H]2O[C@H](C)C[C@H](N(C)C)[C@H]2O)[C@](C)(OC)C[C@@H](C)/C(=N\\OCC#Cc2ccc(N)nc2)[C@H](C)[C@H]2OC(=O)O[C@@]21C", 0.125),
]

Return reported MIC; argument: `CC[C@H]1OC(=O)[C@@](C)(F)C(=O)[C@H](C)[C@@H](O[C@@H]2O[C@H](C)C[C@H](N(C)C)[C@H]2O)[C@](C)(OC/C=C/c2ccc3[nH]ccc(=O)c3c2)C[C@@H](C)/C(=N\OC)[C@H](C)[C@H]2OC(=O)O[C@@]21C`
0.125

---

- System: Staphylococcus aureus
- Test name: Bactericidal activity against MLS-resistant Staphylococcus aureus PU 20 expressing constitutive ermC gene pretreated followed by subculture in absence of compound measured after 24 hrs
- Format: functional
Recorded metric: MBC

Look over these answered cases.
# Compound, MBC
records = [
    ("CC[C@H]1OC(=O)[C@@](C)(F)C(=O)[C@H](C)[C@@H](O[C@@H]2O[C@H](C)C[C@H](N(C)C)[C@H]2O)[C@](C)(OC)C[C@@H](C)/C(=N\\OCC#Cc2cncc(C(=O)NC)c2)[C@H](C)[C@H]2OC(=O)O[C@@]21C", "> 256 µg/mL"),
    ("CC[C@H]1OC(=O)[C@@](C)(F)C(=O)[C@H](C)[C@@H](O[C@@H]2O[C@H](C)C[C@H](N(C)C)[C@H]2O)[C@](C)(OC)C[C@@H](C)/C(=N\\OC/C=C/c2ccc3c(c2)c(=O)c(C(=O)NC)cn3CC)[C@H](C)[C@H]2OC(=O)O[C@@]21C", "> 256 µg/mL"),
    ("CC[C@H]1OC(=O)[C@@](C)(F)C(=O)[C@H](C)[C@@H](O[C@@H]2O[C@H](C)C[C@H](N(C)C)[C@H]2O)[C@](C)(OC)C[C@@H](C)/C(=N\\OCC#Cc2ccc3c(c2)c(=O)c(C(N)=O)cn3C2CC2)[C@H](C)[C@H]2OC(=O)O[C@@]21C", "> 256 µg/mL"),
    ("CC[C@H]1OC(=O)[C@@](C)(F)C(=O)[C@H](C)[C@@H](O[C@@H]2O[C@H](C)C[C@H](N(C)C)[C@H]2O)[C@](C)(OC)C[C@@H](C)/C(=N\\OC/C=C/c2cnc3ccccc3c2N)[C@H](C)[C@H]2OC(=O)O[C@@]21C", "128 µg/mL"),
]

Return reported MBC; argument: `CC[C@H]1OC(=O)[C@@](C)(F)C(=O)[C@H](C)[C@@H](O[C@@H]2O[C@H](C)C[C@H](N(C)C)[C@H]2O)[C@](C)(OC)C[C@@H](C)/C(=N\OCC#Cc2ccc(N)nc2)[C@H](C)[C@H]2OC(=O)O[C@@]21C`
> 256 µg/mL
